Below, each entry is listed with its recorded IC50.
# target_entity: purified human platelet fibrinogen receptor (GPIIb/IIIa) (Homo sapiens, UniProt P05106+P08514)
# Construct: is isolated from human platelet lysates; from tissue
# Sequence (P08514 32-887 limits assumed): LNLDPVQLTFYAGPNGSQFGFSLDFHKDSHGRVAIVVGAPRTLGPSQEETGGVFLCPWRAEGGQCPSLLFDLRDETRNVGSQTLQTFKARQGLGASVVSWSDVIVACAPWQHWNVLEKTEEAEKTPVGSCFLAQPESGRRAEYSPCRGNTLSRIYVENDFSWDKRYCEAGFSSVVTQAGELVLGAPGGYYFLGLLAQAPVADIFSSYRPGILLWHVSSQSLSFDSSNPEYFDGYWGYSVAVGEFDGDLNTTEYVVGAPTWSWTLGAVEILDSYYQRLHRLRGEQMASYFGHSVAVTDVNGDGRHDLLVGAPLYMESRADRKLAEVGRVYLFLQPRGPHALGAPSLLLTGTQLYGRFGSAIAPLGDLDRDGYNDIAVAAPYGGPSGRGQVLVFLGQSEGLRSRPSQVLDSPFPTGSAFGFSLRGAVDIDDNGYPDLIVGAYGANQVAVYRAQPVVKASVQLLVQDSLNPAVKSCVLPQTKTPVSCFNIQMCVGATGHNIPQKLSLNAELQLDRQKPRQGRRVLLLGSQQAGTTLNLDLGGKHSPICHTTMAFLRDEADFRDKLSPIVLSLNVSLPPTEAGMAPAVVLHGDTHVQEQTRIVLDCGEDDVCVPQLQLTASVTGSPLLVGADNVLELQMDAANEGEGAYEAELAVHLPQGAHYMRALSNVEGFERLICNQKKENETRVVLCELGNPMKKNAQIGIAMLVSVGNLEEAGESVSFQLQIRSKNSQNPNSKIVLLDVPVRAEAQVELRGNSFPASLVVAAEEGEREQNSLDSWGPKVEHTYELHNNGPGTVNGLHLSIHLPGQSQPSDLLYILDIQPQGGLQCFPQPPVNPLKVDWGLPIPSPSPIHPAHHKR
# Sequence (P08514 891-1039 limits assumed): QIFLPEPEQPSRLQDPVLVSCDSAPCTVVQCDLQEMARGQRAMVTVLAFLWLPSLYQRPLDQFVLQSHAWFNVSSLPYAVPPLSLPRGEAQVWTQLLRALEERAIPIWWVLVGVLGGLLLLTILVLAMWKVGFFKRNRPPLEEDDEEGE
# Sequence (P05106 27-788): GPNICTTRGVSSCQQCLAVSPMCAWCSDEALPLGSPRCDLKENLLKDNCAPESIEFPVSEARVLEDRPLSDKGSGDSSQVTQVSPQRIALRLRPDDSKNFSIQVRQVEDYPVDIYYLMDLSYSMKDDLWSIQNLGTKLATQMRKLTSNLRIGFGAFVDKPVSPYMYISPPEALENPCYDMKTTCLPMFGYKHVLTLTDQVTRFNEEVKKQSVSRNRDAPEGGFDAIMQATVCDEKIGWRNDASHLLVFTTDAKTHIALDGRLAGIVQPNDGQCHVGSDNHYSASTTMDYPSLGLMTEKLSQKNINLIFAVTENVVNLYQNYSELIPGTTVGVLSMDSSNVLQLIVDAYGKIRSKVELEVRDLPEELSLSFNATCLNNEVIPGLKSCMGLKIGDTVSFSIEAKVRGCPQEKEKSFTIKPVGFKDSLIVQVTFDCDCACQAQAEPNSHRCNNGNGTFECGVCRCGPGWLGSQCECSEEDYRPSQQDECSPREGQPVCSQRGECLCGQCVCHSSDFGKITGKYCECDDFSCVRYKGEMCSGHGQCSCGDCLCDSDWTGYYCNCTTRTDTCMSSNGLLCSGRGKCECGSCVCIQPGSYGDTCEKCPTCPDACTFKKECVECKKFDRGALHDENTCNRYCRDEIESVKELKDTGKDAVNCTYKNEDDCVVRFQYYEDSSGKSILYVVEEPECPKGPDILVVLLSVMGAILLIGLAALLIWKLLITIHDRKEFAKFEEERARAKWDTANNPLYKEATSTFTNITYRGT
# assay_details: Test (b): GPIIb/IIIa ELISA, inhibition of biotinylated fibrinogen binding
# measurement_conditions: purified human platelet GPIIb/IIIa, ELISA; read-out: Test (b): pIC50 (-log(IC50)), 50% inhibition of biotinylated fibrinogen binding to GPIIb/IIIa (converted)
observed_property: IC50 (nM)

1. CCCc1cc(N2CCN(c3ccncc3)CC2)ccc1OCCCC(=O)OCC [Example 207] : 1000
2. CCCCS(=O)(=O)N[C@@H](Cc1ccc(OCCCN(C)c2ccncc2)cc1)C(=O)O [Example 96] : 3.98
3. CCOC(=O)COc1ccc(C(=O)CN2CCN(c3ccncc3)CC2)cc1 [Example 136] : 2510
4. O=C(O)CC(NC(=O)c1cccc(CN2CCN(c3ccncc3)CC2)c1)c1ccccc1 (stereo not drawn) [Example 55] : 15800
5. COc1cc(C(=O)CN2CCN(c3ccncc3)CC2)ccc1OCC(=O)O [Example 6] : 25.1
6. COC(=O)COc1ccc(C(=O)C(C)(C)N2CCN(c3ccncc3)CC2)cc1 [Example 175] : 631
7. NC(=O)COc1ccc(C(=O)CN2CCN(c3ccncc3)CC2)cc1 [Example 142] : 5010
8. O=C(O)C1CCN(C(=O)CN2CCN(c3ccncc3)CC2)CC1 [Example 28] : 2000
9. COC(=O)COc1ccc(CCN2CCN(c3ccncc3)CC2)cc1 [Example 147] : 631

* * *

# target_entity: purified human platelet fibrinogen receptor (GPIIb/IIIa) (Homo sapiens, UniProt P05106+P08514)
# Construct: is isolated from human platelet lysates; from tissue
# assay_details: Test (b): GPIIb/IIIa ELISA, inhibition of biotinylated fibrinogen binding
# measurement_conditions: purified human platelet GPIIb/IIIa, ELISA; read-out: Test (b): pIC50 (-log(IC50)), 50% inhibition of biotinylated fibrinogen binding to GPIIb/IIIa (converted)
Structures can show the parent of a compound that is named as a salt.
Below, each entry is listed with its recorded IC50.
observed_property: IC50 (nM)

1. CCCCS(=O)(=O)NC(Cc1ccc(C(=O)CN2CCN(c3ccncc3)CC2)cc1)C(=O)O (racemic) : 3.16
2. O=C(O)CCCOc1cccc(N2CCN(c3ccncc3)CC2)c1 : 100
3. COC(=O)CNC(=O)COc1ccc(C(=O)CN2CCN(c3ccncc3)CC2)cc1 : 6310
4. CC(C)OC(=O)COc1ccc(C(=O)CN2CCN(c3ccncc3)CC2)cc1 : 3160
5. COC(=O)COc1ccc(C(=O)CN2CCN(c3ccnc(C)c3)CC2)cc1 : 3980
6. CCCCS(=O)(=O)NC(CC(=O)OC)c1ccc(OCC2CCN(c3ccncc3)CC2)cc1 (stereo not shown) : 3160
7. CCCCC(=O)N[C@@H](Cc1ccc(OCCC2CCN(c3ccncc3)CC2)cc1)C(=O)O : 3.16
8. COC(=O)CSc1ccc(C(=O)CN2CCN(c3ccncc3)CC2)cc1 : 50100
9. CCCCS(=O)(=O)N[C@@H](Cc1ccc(OC2CCN(c3ccncc3)CC2)cc1)C(=O)OC : 200
10. C[C@@H](COc1ccc(N2CCN(c3ccncc3)CC2)cc1)CC(=O)O.Cl [Example 246, hydrochloride] : 22.4
11. Cc1ccc(S(=O)(=O)N[C@@H](Cc2ccc(OCCC3CCN(c4ccncc4)CC3)cc2)C(=O)O)cc1 : 3.16
12. COC(=O)CC(NC(=O)c1ccc(N2CCN(c3ccncc3)CC2)cc1)c1ccccc1 (stereo not shown) : 39800
13. CN(Cc1ccc(-c2ccc(OCC(=O)O)cc2)cc1)c1ccncc1 : 3980
14. O=C(CN1CCN(c2ccncc2)CC1)c1ccc2oc(C(=O)O)cc2c1 : 631
15. Cc1ccc(S(=O)(=O)Nc2ccc(C(=O)CN3CCN(c4ccncc4)CC3)cc2)cc1 : 2000
16. CCCCS(=O)(=O)N[C@@H](Cc1ccc(OCCCC2CCN(c3ccncc3)CC2)cc1)C(=O)O : 12.6
17. CS(=O)(=O)NCc1ccc(NC(=O)C2CCN(c3ccncc3)CC2)cc1 : 20000
18. O=C(O)COc1ccc(C(=O)CN2CCC(=Cc3cnccc3N3CCCC3)C2)cc1 : 1260
19. COC(=O)CC(C)NC(=O)c1ccc(N2CCN(c3ccncc3)CC2)cc1 (stereo not shown) : 15800
20. CCCCS(=O)(=O)N[C@@H](Cc1ccc(OCCCC2CCN(c3ccncc3)CC2)cc1)C(=O)OC : 200
21. O=C(O)CCNC(=O)c1ccc(N2CCN(c3ccncc3)CC2)cc1 : 25.1
22. O=C(O)CCCOc1ccc(N2CCN(c3ccncc3)CC2)cc1 [Example 200, hydrochloride salt] : 3.98
23. COC(=O)C(CCOc1ccc(N2CCN(c3ccncc3)CC2)cc1)NC(=O)OC(C)(C)C (racemic) : 158
24. O=C(O)CC1(O)CCC(N2CCN(c3ccncc3)CC2)CC1 (stereo not shown) : 1580
25. O=C(O)COc1ccc2nccc(N3CCN(c4ccncc4)CC3)c2c1 : 39800
26. O=C(O)CCNC(=O)CCCCN1CCN(c2ccncc2)CC1 : 20
27. Cc1ccc(S(=O)(=O)NCC2CCN(C(=O)CN3CCN(c4ccncc4)CC3)CC2)cc1 : 2510
28. C=CCc1cc(N2CCN(c3ccncc3)CC2)ccc1OCCCC(=O)O : 10
29. CCCCS(=O)(=O)NCCc1ccc(C(=O)CN2CCN(c3ccncc3)CC2)cc1 : 31600
30. O=C(O)C[C@H](NC(=O)CNC(=O)CN1CCN(c2ccncc2)CC1)C(=O)NCCc1ccccc1 : 126

* * *

# target_entity: purified human platelet fibrinogen receptor (GPIIb/IIIa) (Homo sapiens, UniProt P05106+P08514)
# Construct: is isolated from human platelet lysates; from tissue
# assay_details: Test (b): GPIIb/IIIa ELISA, inhibition of biotinylated fibrinogen binding
# measurement_conditions: purified human platelet GPIIb/IIIa, ELISA; read-out: Test (b): pIC50 (-log(IC50)), 50% inhibition of biotinylated fibrinogen binding to GPIIb/IIIa (converted)
Where a name gives a salt, the structure may show the parent alone.
observed_property: IC50 (nM)

1) O=C(O)CCCCOc1cccc(N2CCN(c3ccncc3)CC2)c1 : 79.4
2) O=C(O)CCc1ccc(OCC2CCN(c3ccncc3)CC2)cc1 : 631
3) O=C(O)CCc1ccc(C(=O)CN2CCN(c3ccncc3)CC2)cc1 : 63.1
4) O=C(O)CCCCOc1ccc(N2CCN(c3ccncc3)CC2)cc1 : 1260
5) O=C(O)COc1ccc(C(=O)CN2CCN(c3ccncc3)CC2)c(OCC(=O)O)c1 [Example 129, dihydrochloride] : 316
6) CCCCS(=O)(=O)N[C@@H](Cc1ccc(OCC2CCN(c3ccncc3)CC2)cc1)C(=O)O : 2
7) COC(=O)COc1ccc(C(=O)CN2CCN(c3ccncn3)CC2)cc1 : 39800
8) O=C(O)CSc1ccc(C(=O)CN2CCN(c3ccncc3)CC2)cc1 : 1000
9) O=C(O)C1CCCC(Oc2ccc(N3CCN(c4ccncc4)CC3)cc2)C1 (stereo not drawn) : 31.6
10) COC(=O)CCCc1ccc(CN2CCN(c3ccncc3)CC2)cc1 : 1000
11) COC(=O)[C@H]1CC[C@H](Oc2ccc(N3CCN(c4ccncc4)CC3)cc2)CC1 : 5010
12) COC(=O)COc1ccc(C(=O)CN2CCN(c3ccncc3)CC2)c2ccccc12 : 3980
13) O=C(O)Cc1ccc(NC(=O)C2CCN(c3ccncc3)CC2)cc1 : 10000
14) COC(=O)[C@H](Cc1ccccc1)NC(=O)c1ccc(N2CCN(c3ccncc3)CC2)cc1 : 20000
15) O=C(N[C@@H](Cc1ccccc1)C(=O)O)c1ccc(N2CCN(c3ccncc3)CC2)cc1 : 3980
16) COC(=O)COc1ccc(C(=O)C(C)N2CCN(c3ccncc3)CC2)cc1OCC(=O)OC (stereo not drawn) : 251
17) COC(=O)CCCCc1ccc(CN2CCN(c3ccncc3)CC2)cc1 : 3980
18) O=C(O)COc1ccc(OCCC2CCN(c3ccncc3)CC2)cc1 : 15.8
19) COC(=O)COc1ccc(NC(=O)CC2CCN(c3ccncc3)CC2)cc1 : 20000
20) CCn1cc(C(=O)O)c(=O)c2ccc(N3CCN(c4ccncc4)CC3)cc21 : 2510
21) COC(=O)COc1ccc(C(=O)CN2CCN(c3ccncc3)CC2)cc1OCC(=O)OC : 251
22) O=C(O)C[C@H](NC(=O)CN1CCN(c2ccncc2)CC1)C(=O)N[C@@H](Cc1ccccc1)C(=O)O : 251
23) CCCCS(=O)(=O)N[C@@H](Cc1ccc(OCC2CCN(c3ccncc3)CC2)cc1)C(=O)OC : 126
24) O=C(O)CCC1CCN(C(=O)CN2CCN(c3ccncc3)CC2)CC1 : 631
25) O=C(O)CCNC(=O)c1cccc(N2CCN(c3ccncc3)CC2)n1 : 2000
26) COC(=O)CNc1ccc(OC(=O)CC2CCN(c3ccncc3)CC2)cc1 : 50100
27) O=C(O)COc1ccc(C(=O)CCN2CCN(c3ccncc3)CC2)cc1 : 79.4
28) Cc1cc(N2CCN(CC(=O)c3ccc(OCC(=O)O)cc3)CC2)ccn1 [Example 152, dihydrobromide] : 100
29) CCOC(=O)C1CCN(C(=O)CN2CCN(c3ccncc3)CC2)CC1 : 2510
30) COC(=O)CCNC(=O)c1ccc(N2CCN(c3ccncc3)CC2)cc1 : 15800
31) CN(C)c1ccncc1COc1ccc(OCCCC(=O)O)cc1 : 25100
32) CC(C)(C)OC(=O)COc1ccc(C(=O)CN2CCN(c3ccncc3)CC2)cc1 : 12600
33) O=C(O)C[C@H](NC(=O)c1ccc(N2CCN(c3ccncc3)CC2)cc1)C(=O)NCCc1ccccc1 : 251
